B1: SNAP91 (parent)
chain: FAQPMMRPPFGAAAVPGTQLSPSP

Variants of: B1
procedure.summary: protein stability index of a GFP-peptide fusion (GPS, HEK-293T) (PSI 1-6); higher = more stable;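 further: lentivirally expressed fusions sorted by FACS into six bins by GFP to DsRed ratio, PSI derived from sequencing read proportions per bin multiplied by bin number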
experimental.context: c terminus: a fixed tail appended
Reported protein stability index is given for each of the following variants.
No unit in the answer, only the number.

Study these solved cases before continuing.
    var        reported_endpoint  readout_number
0   P9Q  protein stability index            3.91
1  T18E  protein stability index             2.6
2  S21M  protein stability index            2.85
3   P4F  protein stability index            1.44
4  F10A  protein stability index            3.98

Noted for `F10Q` : its protein stability index reads 4.33

GET /value?item= `A12E` &field=protein stability index returns 3.39

For `A12M` the variant record lists protein stability index as 3.03

// recorded protein stability index for `S21K` : 2.95

Lab note: measured protein stability index of `P22V` was 3.08

The reported value for `M6H` in terms of protein stability index is 4.01
